Listing of entries alongside the reported Percent Effect.
# TARGET_SYSTEM: Sialic acid-binding Ig-like lectin 9 (Homo sapiens) (UniProt Q9Y336)
# Sequence (Q9Y336 whole entry): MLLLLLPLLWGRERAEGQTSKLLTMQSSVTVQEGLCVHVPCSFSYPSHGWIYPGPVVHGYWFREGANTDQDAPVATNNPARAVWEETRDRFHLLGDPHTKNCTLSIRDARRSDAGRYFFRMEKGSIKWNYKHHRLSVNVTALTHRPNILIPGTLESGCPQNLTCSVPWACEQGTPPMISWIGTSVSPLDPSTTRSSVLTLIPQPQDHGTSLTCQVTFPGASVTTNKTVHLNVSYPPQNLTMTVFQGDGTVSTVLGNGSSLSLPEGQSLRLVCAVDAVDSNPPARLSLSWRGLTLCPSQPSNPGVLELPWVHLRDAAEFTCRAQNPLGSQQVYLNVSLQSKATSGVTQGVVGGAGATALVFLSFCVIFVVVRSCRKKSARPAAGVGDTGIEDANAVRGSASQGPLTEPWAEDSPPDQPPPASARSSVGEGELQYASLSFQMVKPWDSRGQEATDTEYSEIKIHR
# MEASUREMENT_PROTOCOL: Hs-Siglec9 ALPHAscreen SOP 20170721
# Set-up: scale not given: direction of the effect not stated beside the values
# ASSAY_CONDITIONS: 10 µM
Please give a number only; it is taken to be in %.

// known answers, use as guide
molecule="Cc1cc(C2CCCN2CC(=O)N(CCC#N)c2ccccc2F)on1 (stereo not drawn)" experimental_result=8.81
molecule="CS(=O)(=O)c1cccc(C(N)c2ccc(F)c(F)c2)c1 (stereo not drawn)" experimental_result=1.99
molecule=COCCNC(=O)[C@H]1C[C@@H]2CCN(Cc3ccoc3)C[C@H]2O1 experimental_result=-7.78

Ask: Param readout = Percent Effect; param system = Sialic acid-binding Ig-like lectin 9 (Homo sapiens) (UniProt Q9Y336); param query = O=C(NCCN1CCC(c2cccs2)CC1)Nc1cccs1 ; response: value
Reply: 20.2

Ask: What would you report for O=C(NCCN1CCCCC1)c1ccoc1 ?
Reply: -0.674

Ask: // query: CC(C)c1cc(CNC(=O)N2CCC(Cc3cnn(C)c3)C2)on1 (stereo not drawn)
Reply: -6.83

Ask: One more molecule: CC1CCCN(Cc2coc(-c3cccc(F)c3)n2)C1 (stereo not drawn)
Reply: 7.31

Ask: How about this molecule: Cc1ncsc1C(=O)N(C)CCc1ccncc1
Reply: 3.98

Ask: Do the same for CS(=O)(=O)c1ccc(CNC(=O)N2CCC(C(N)=O)C2)cc1 (stereo not drawn) please
Reply: 3.98
